- TARGET_OR_TEST_SYSTEM: Glycogen synthase kinase-3 alpha (Homo sapiens)
READOUT: IC50

Which IC50 is reported for this molecule? CC[C@]1(c2cccc(-c3ccncc3C)c2)C2=C(CC(C)(C)NC2=O)NC2N=NC(C)=C21 (stereo partly specified)
1 to 5 µM

Which IC50 is reported for this molecule? CCC1(c2cccc(-c3ccnc(O)c3)c2)C2=CN=NC2NC2=C1C(=O)CC(C)(C)C2 (stereo unspecified)
< 0.1 µM

Which IC50 is reported for this molecule? CC[C@@]1(c2cccc(-c3cnn(C)c3C)c2)C2=C(CC(C)(C)NC2=O)NC2N=NC(C(F)(F)F)=C21 (stereo partly specified)
< 0.1 µM

Which IC50 is reported for this molecule? CCC1(c2cccc(S(C)(=O)=O)c2)C2=C(CC(C)(C)NC2=O)NC2N=NC(C(F)(F)F)=C21 (stereo unspecified)
< 0.1 µM

Which IC50 is reported for this molecule? CC[C@@]1(c2cccc(C(F)(F)F)c2)C2=CN=NC2NC2=C1C(=O)N(c1ccsc1)CC2 (stereo partly specified)
> 5 µM

Which IC50 is reported for this molecule? CC[C@]1(c2cccc(-c3ccnn3C)c2)C2=CN=NC2NC2=C1C(=O)N[C@]1(CCCOC1)C2 (stereo partly specified)
1 to 5 µM

* * *

Task for the reader: assign each of the following molecules its reported IC50.
- TARGET_OR_TEST_SYSTEM: Glycogen synthase kinase-3 alpha (Homo sapiens, UniProt P49840)
- Sequence (P49840 whole entry): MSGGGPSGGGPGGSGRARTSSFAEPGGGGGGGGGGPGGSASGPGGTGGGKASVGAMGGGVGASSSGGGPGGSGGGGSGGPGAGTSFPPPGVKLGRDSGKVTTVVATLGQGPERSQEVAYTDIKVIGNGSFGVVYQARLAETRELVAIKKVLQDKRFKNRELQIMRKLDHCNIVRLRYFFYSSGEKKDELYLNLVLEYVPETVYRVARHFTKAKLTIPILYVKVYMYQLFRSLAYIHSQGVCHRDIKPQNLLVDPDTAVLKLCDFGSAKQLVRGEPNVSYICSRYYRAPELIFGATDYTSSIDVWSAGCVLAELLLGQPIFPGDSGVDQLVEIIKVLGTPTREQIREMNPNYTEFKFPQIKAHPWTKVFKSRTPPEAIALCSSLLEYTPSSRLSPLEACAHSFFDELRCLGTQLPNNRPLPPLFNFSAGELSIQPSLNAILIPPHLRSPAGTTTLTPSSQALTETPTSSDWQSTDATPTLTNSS

Which IC50 is reported for this molecule? C[C@H]1CCC[C@@]2(C1)C1=C(N=NC1)NC1=C2C(=O)CC(C)(C)C1
0.1 to 1 µM

Which IC50 is reported for this molecule? CC[C@]1(c2cccc(C(F)(F)F)c2)C2=C(N=NC2)NC2=C1C(=O)N(c1ccccc1)C2
> 5 µM

Which IC50 is reported for this molecule? CC(=O)N1CC2(C1)C1=C(N=NC1)NC1=C2C(=O)CC(C)(C)C1
1 to 5 µM

Which IC50 is reported for this molecule? CCC1(c2cccc(N(C)C(=O)c3cnn(C)c3)c2)C2=CN=NC2NC2=C1C(=O)CC(C)(C)C2 (centres undefined)
< 0.1 µM

* * *

pIC50: −log10 of the molar value.
READOUT: pIC50

Please tell me: pIC50 of C[C@@H]1C[C@@]2(CCN1S(C)(=O)=O)C1=C(N=NC1)NC1=C2C(=O)CC(C)(C)C1 [US20250313563, Compound 918315] , system Glycogen synthase kinase-3 alpha (Homo sapiens)?
6.00 to 7.00

Please tell me: pIC50 of Cc1ccc(S(C)(=O)=O)cc1[C@]1(C)C2=C(CC(C)(C)CC2=O)NC2=C1C(CC(C)(C)C)N=N2 (stereo partly specified) [US20250313563, Compound 126397] , system Glycogen synthase kinase-3 alpha (Homo sapiens)?
5.30 to 6.00

Please tell me: pIC50 of CC[C@]1(c2cccc(N3CCC3)c2)C2=CN=NC2NC2=C1C(=O)CC(C)(C)C2 (stereo partly specified) [US20250313563, Compound 889631] , system Glycogen synthase kinase-3 alpha (Homo sapiens)?
6.00 to 7.00

Please tell me: pIC50 of COc1ccc(S(=O)(=O)N2CCC3(CC2)C2=C(N=NC2)NC2=C3C(=O)CC(C)(C)C2)cc1 [US20250313563, Compound 917143] , system Glycogen synthase kinase-3 alpha (Homo sapiens)?
> 7.00

Please tell me: pIC50 of CC1(C)CC(=O)C2=C(C1)NC1=C(CN=N1)C21COC2(CCC2)C1 (stereo unspecified) [US20250313563, Compound 911973] , system Glycogen synthase kinase-3 alpha (Homo sapiens)?
6.00 to 7.00

Please tell me: pIC50 of CC[C@@]1(c2cccc(C3CC3)c2)C2=CN=NC2NC2=C1C(=O)CC(C)(C)C2 (stereo partly specified) [US20250313563, Compound 811558] , system Glycogen synthase kinase-3 alpha (Homo sapiens)?
5.30 to 6.00

// provenance: BindingDB's records for patent US20250313563
